test system: SKBr3 cell Hsp90; assay: EC50 for Hsp90 binding in SKBr3 cell lysate; details: read-out: EC50, binding to SKBr3 cell Hsp90
pEC50: −log10 of the molar value.
assay-endpoint: pEC50

Use these answered entries as a reference point.
substance_smiles=CC(C)NCCCn1c(Sc2cc3c(cc2-c2cnoc2)OCO3)nc2c(N)ncnc21 measured_result="< 6.52"
substance_smiles=CC(C)NCCCn1c(Sc2cc3c(cc2-c2cc(C(F)(F)F)cc(C(F)(F)F)c2)OCO3)nc2c(N)ncnc21 measured_result="< 4.00"

Input: So what's the measured pEC50 for this one? "CC(C)NCCCn1c(Sc2cc3c(cc2-c2ccnn2C)OCO3)nc2c(N)ncnc21"
Output: < 6.52
